Target: Glycogen synthase kinase-3 beta (Homo sapiens)
Sequence (P49841 whole entry): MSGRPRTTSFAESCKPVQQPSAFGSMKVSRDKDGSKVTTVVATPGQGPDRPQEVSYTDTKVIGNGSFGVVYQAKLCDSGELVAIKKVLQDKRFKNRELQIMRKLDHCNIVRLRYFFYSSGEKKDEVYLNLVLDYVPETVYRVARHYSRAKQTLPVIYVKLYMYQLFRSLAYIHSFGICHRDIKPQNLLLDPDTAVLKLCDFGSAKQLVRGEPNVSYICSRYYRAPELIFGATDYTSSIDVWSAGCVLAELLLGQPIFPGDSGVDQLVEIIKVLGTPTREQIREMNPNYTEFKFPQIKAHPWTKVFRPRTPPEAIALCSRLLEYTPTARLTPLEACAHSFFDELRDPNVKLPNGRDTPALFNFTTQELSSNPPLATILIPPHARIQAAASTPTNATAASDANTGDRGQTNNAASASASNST
Experiment: biochemical
Description: Inhibition of recombinant human N-terminal His6-tagged GSK3beta H350L mutant expressed in baculovirus infected Sf21 cells using prephosphorylated polypeptide as substrate incubated for 1 min followed by substrate addition and measured after 30 mins by Kinase-Glo luminescence assay
Please go through the items and note down their pIC50.
One number for each entry, as −log10 of the molar value.

Look over these answered cases.
Inquiry: Determine from records and report pIC50 for NC(=O)c1sc(-c2ccnc(NC(=O)C3CC3)c2)nc1OCCC1CCN(Cc2ccccn2)CC1
Reply text: 6.71

Inquiry: Supply pIC50 value. Item: CNC(=O)c1sc(-c2ccnc(NC(=O)C3CC3)c2)nc1OC1CCN(Cc2ccccc2)CC1
Reply text: 8.15

Inquiry: For the molecule CNC(=O)c1sc(-c2ccnc(NC(=O)C3CC3)c2)nc1OCC1CCN(Cc2ccccc2)CC1 , give its reported pIC50.
Reply text: 7.80

Inquiry: Supply measured pIC50 of CNC(=O)c1sc(-c2ccnc(NC(=O)C3CC3)c2)nc1OCC1CCN(Cc2cccc(Br)c2)CC1 in your reply.
Reply text: 7.31

Inquiry: Report measured pIC50; entry is NC(=O)c1sc(-c2ccnc(NC(=O)C3CC3)c2)nc1OCCC1CCN(Cc2cccc(F)c2)CC1
Reply text: 7.59

Now let's try a different one.
Inquiry: Look up and state reported pIC50 for NC(=O)c1sc(-c2ccnc(NC(=O)C3CC3)c2)nc1OCCC1CCN(Cc2c(F)cccc2F)CC1
Reply text: 8.30

###

Assay: Tmax in Sprague-Dawley rat at 10 mg/kg, iv measured upto 24 hrs by LC-MS/MS analysis
Assay type: ADME, organism-based
Conditions: in vivo
QUANTITY_NAME: Tmax (min)
Give bare numbers, in min.

Inquiry: Provide one value: measured Tmax of NC(=O)c1sc(-c2ccnc(NC(=O)C3CC3)c2)nc1OCC1CCN(Cc2ccccc2)CC1
Reply text: 6
